- assayed.target: mLXRα (Liver X receptor alpha) (Mus musculus)
- Construct: 172-455; expressed in transfected cells; host or cells: CHO cells, transient transfection
- Sequence (Q9Z0Y9 172-445 limits assumed): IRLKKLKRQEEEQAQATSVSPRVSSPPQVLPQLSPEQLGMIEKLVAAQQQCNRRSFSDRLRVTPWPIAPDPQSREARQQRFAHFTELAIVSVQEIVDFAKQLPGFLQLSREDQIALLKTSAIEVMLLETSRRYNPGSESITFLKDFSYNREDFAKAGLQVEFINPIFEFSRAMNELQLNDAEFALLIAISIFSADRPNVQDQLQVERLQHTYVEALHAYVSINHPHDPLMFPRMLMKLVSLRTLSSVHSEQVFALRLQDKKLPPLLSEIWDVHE
- measurement.protocol: Transcriptional assay of LXRα (Gal4-LXRα hybrid)
- Type: cell-based
- measurement.parameters: Table 7; no unit printed for this column (b114 gives 1.5 μM for OR-1050); read-out: Transcriptional Assay of LXRα EC50
Field: pEC50. Provide a value for each of the compounds that follow.
As a rule, pEC50 stands for the negative log10 of the concentration, concentration in M.

Prompt: Query (compound): CCN(c1ccc(C(O)(C(F)(F)F)C(F)(F)F)cc1)S(=O)(=O)c1ccc(C)cc1 [OR-1052] ; field requested: pEC50
Completion: 6.09

Prompt: Query (compound): O=S(=O)(c1ccccc1)N(CC(F)(F)F)c1ccc(C(O)(C(F)(F)F)C(F)(F)F)cc1 [Compound T0901317, reference compound] ; field requested: pEC50
Completion: 6.85

Prompt: Query (compound): CCN(c1ccc(C(O)(C(F)(F)F)C(F)(F)F)cc1)S(=O)(=O)c1ccc(Br)cc1 [OR-1048] ; field requested: pEC50
Completion: 6.24
